Origin of values: ChEMBL document CHEMBL1201862

System: NCI-H460
Assay: NCI tumour cell line growth inhibition, 48 h
Calls of active or inactive are those of the source. Cut-off read from the data, not from the text of the source: active = GI50 up to about 1.1 µM and inactive = higher.
Attribute: GI50

Worked examples, 3 compounds total:
Measured GI50 (NCI-H460), entry O=C1CC23CC(=O)CC2(C1)c1ccccc1C3=O (stereo not given) : > 100 µM (inactive)

Measured GI50 (NCI-H460), entry COc1ccc(-c2c3c(n(C4OC(COC(C)=O)C(OC(C)=O)C(OC(C)=O)C4OC(C)=O)c(=S)c2C#N)CCCC3)cc1 (stereo not given) : 39.8 µM (inactive)

Measured GI50 (NCI-H460), entry OC1C2[C@@H](O)CCCN2C[C@@H](O)[C@H]1O (stereo not given in full) : > 100 µM (inactive)

More entries:
Measured GI50 (NCI-H460), entry CC(C)N(C(=O)C12C3C4C1C1C2C3C41C#N)C(C)C (stereo not given) : > 100 µM (inactive)

Measured GI50 (NCI-H460), entry C=C1C(C(=O)OC)[C@H]1C(=O)OC (stereo not given in full) : > 100 µM (inactive)

Measured GI50 (NCI-H460), entry COP(=O)(OC)C(Nc1ccc(Cc2ccc(NC(c3ccco3)P(=O)(OC)OC)cc2)cc1)c1ccco1 (stereo not given) : > 100 µM (inactive)

Measured GI50 (NCI-H460), entry CC1=C2[C@@H](c3ccccc3)C3C=CC2(C=C3C(F)(F)F)N(C(=O)NC2CCCCC2)C1=O (stereo not given in full) : > 100 µM (inactive)

Measured GI50 (NCI-H460), entry CN1CCC2(c3ccccc3)CC(=O)/C(=C/c3ccc(Cl)c(Cl)c3)C1C2.[O-][Cl+3]([O-])([O-])O (stereo not given) : 2.35 µM (inactive)

Measured GI50 (NCI-H460), entry O=C1C=C(Cl)C(=O)C(c2ccc(Cl)cc2)=C1 : 79.6 µM (inactive)

Measured GI50 (NCI-H460), entry CC1(C)OC2C(O)C(CO)OC2(C(F)F)O1 (stereo not given) : > 100 µM (inactive)
